# maps each entry to its Treatment Effect, change of mean blood pressure during the infusion
# Test system: conscious rabbits
# EXPERIMENTAL DETAILS: Blood pressure and heart rate in conscious rabbits, intravenous infusion dose-response (Example 8)
# STATED CONDITIONS: highest dose; Table 10A, groups 1, 2A and 3
The answer consists of two parts: a number and, after it, its unit.

{"columns": ["CHAIN", "OBSERVED"],
 "data": [
  ["SDSKIGDGCFGLPLDHIGSVSGLGCNRPVQNRPKK (A portion of a natriuretic peptide) [TNPa]", "−11.6 mm Hg"],
  ["SDSKIGNGCFGFPLDRIGSVSGLGCNRPMQNPPKKFSGE (A portion of a natriuretic peptide) [TNPc I28P]", "−9.1 mm Hg"]
]}

Task: Quickly give me recorded Treatment Effect, change of mean blood pressure during the infusion for SDSKIGNGCFGFPLDRIGSVSGLGCNRIMQNRPKKFSGE (A portion of a natriuretic peptide) [TNPc P32R]
Output: −19.9 mm Hg

Task: Please report Treatment Effect, change of mean blood pressure during the infusion for the following sequence: SDSKIGNGCFGFPLDHIGSVSGLGCNRIMQNPPKKFSGE (A portion of a natriuretic peptide) [TNPc R16H]
Output: −7.3 mm Hg

Task: Output measured Treatment Effect, change of mean blood pressure during the infusion for this item: SDPKIGDGCFGLPLDHIGSVSGLGCNRPVQNRPKK (A portion of a natriuretic peptide) [TNPb]
Output: −11.0 mm Hg
